Please go through the items and note down their Ratio.
- STUDY_SYSTEM: Tyrosine-protein phosphatase non-receptor type 6, SHP-1 (Homo sapiens)
- ASSAY_INFO: Ratio between dissociation constant and First-order rate constant (K inact / Ki) was determined

What value of measured Ratio is listed for N=C(N)NCCCC(NC(=O)[C@H](CCCNC(=N)N)NC(=O)CNC(=O)COc1ccc(C(=O)CBr)cc1)C(=O)O (stereo partly specified) ? 6300 M⁻¹ min⁻¹

Can you handle O=C(CBr)c1ccccc1 next? 7100 M⁻¹ min⁻¹

What do we get for O=C(O)COc1ccc(C(=O)CBr)cc1 ? 9300 M⁻¹ min⁻¹

// same read-out, input: O=C(CCl)c1ccc(O)c(O)c1 420 M⁻¹ min⁻¹

Next molecule: O=C(CBr)c1ccc(-c2ccccc2C(=O)O)cc1 4550 M⁻¹ min⁻¹

Do the same for O=C(CCl)c1ccc(F)cc1F please 120 M⁻¹ min⁻¹

Now this one: O=C(CBr)c1ccc2ccccc2c1 20000 M⁻¹ min⁻¹

Another molecule: O=C(CBr)c1ccccn1 7500 M⁻¹ min⁻¹

Could you do the same for O=C(CBr)c1ccc(F)cc1 , please? 9100 M⁻¹ min⁻¹

Input O=C(O)COc1ccc(C(=O)CCl)cc1 710 M⁻¹ min⁻¹

Similarly, O=C(CBr)c1ccc(-c2ccccc2)cc1 ? 41 M⁻¹ min⁻¹

Next molecule up: O=C(CBr)c1cccc2ccccc12 9400 M⁻¹ min⁻¹

Quick one: O=C(CCl)c1ccccc1 [PHENACYL CHLORIDE] 430 M⁻¹ min⁻¹

Okay, and O=C(CBr)c1ccc(O)cc1 ? 9300 M⁻¹ min⁻¹

Next molecule up: O=C(CBr)c1ccc(C(F)(F)F)cc1 26000 M⁻¹ min⁻¹

What about this molecule? O=C(CCl)c1ccc(F)cc1 580 M⁻¹ min⁻¹

====

Would you kindly list Ki for each of these compounds?
- STUDY_SYSTEM: Tyrosine-protein phosphatase non-receptor type 6, SHP-1 (Homo sapiens)
- ASSAY_INFO: Dissociation constant towards SHP-1 receptor-inhibitor complex was determined using PNP as substrate
Express it in µM; write the number only.

Report Ki for O=C(CBr)c1ccc(F)cc1 please. 56

And what about the compound O=C(CBr)c1ccccn1 ? 173

Field entry: O=C(CCl)c1ccc(O)c(O)c1 1400

Now consider O=C(CBr)c1ccc2ccccc2c1 . 25

Next compound up: O=C(CCl)c1ccc(F)cc1F 17500

Further, for O=C(O)CCC(NC(=O)[C@H](CCC(=O)O)NC(=O)CNC(=O)COc1ccc(C(=O)CBr)cc1)C(=O)O (stereo partly specified) ? 2.8

====

- STUDY_SYSTEM: Tyrosine-protein phosphatase non-receptor type 6, SHP-1 (Homo sapiens) (UniProt P29350)
- Sequence (P29350 whole entry, looked up): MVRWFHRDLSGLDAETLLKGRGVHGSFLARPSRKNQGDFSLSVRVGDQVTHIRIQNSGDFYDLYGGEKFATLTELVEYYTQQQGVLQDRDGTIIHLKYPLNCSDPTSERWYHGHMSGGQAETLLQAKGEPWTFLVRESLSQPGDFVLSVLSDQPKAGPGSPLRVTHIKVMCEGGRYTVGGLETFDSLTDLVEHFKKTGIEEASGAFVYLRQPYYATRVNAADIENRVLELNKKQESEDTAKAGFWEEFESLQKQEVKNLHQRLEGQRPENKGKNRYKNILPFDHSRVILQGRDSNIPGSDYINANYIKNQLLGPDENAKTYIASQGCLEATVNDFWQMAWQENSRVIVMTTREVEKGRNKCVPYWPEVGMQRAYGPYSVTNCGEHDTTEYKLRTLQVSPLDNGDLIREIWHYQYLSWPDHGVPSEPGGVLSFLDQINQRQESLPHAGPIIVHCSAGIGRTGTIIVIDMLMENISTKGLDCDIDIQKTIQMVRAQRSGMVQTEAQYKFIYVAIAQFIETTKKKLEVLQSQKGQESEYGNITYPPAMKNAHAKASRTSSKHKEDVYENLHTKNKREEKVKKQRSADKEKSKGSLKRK
- ASSAY_INFO: Dissociation constant towards SHP 1 receptor-inhibitor complex was determined using PNP as substrate
Please respond with reported Ki for every item in the list.
Value and unit, in that order.

Entry under review: NC(N)=NCCCC(NC(=O)[C@H](CCCN=C(N)N)NC(=O)CNC(=O)COc1ccc(C(=O)CBr)cc1)C(=O)O (stereo partly drawn) . Reported Ki? 760 µM

Same for O=C(CBr)c1ccc(-c2ccccc2C(=O)O)cc1 220 µM

Queued: O=C(O)COc1ccc(C(=O)CBr)cc1 193 µM

====

- STUDY_SYSTEM: Tyrosine-protein phosphatase non-receptor type 6, SHP-1 (Homo sapiens) (UniProt P29350)
- ASSAY_INFO: First-order rate constant (K inact) for conversion of the ExI complex (SHP-1 -inhibitor complex) into the covalent adduct, EI was determined using PNP as substrate
METRIC_NAME: kinact
Numeric answer plus unit only.

Please look up its kinact: O=C(CBr)c1ccc(O)cc1 0.4 min⁻¹

Continue with O=C(O)CCC(NC(=O)[C@H](CCC(=O)O)NC(=O)CNC(=O)COc1ccc(C(=O)CBr)cc1)C(=O)O (some centres not stated) 1.2 min⁻¹

Also O=C(CCl)c1ccc(F)cc1 , if possible. 0.22 min⁻¹

Field entry: O=C(CBr)c1ccccn1 1.3 min⁻¹

And O=C(CBr)c1ccc(-c2ccccc2)cc1 ? 0.59 min⁻¹

Here is the next compound: O=C(CBr)c1ccccc1 0.58 min⁻¹

And for O=C(CBr)c1ccc(F)cc1 ? 0.51 min⁻¹
